# assay.summary: solvent given as SMILES
# assay.conditions: in CCCCCO
measured.endpoint: emission maximum (nm)

>>> df
                                   compound  measured_endpoint  observed_result
0  Cc1ccc(C(=O)NN2C3=C(CC4=C2CCCC4=O)C(=O)CCC3)cc1   emission maximum              445
1  C(=C\c1cccc2ccccc12)/c1ccc(-c2nnc(-c3ccc(-c4cc5ccccc5s4)cc3)o2)cc1   emission maximum              438
2               COC(=O)c1c2ccccc2nc2ccccc12   emission maximum              432
3  COC(=O)C(Cc1ccc2oc(-c3ccc(N(C)C)cc3)nc2c1)NC(=O)OC(C)(C)C (stereo not given)   emission maximum            388.5
4  O=C1c2ccccc2-c2ccc(N3CCN(c4ccccc4)CC3)c3cccc1c23   emission maximum              586
